SYSTEM_TESTED: human β3-adrenergic receptor (Homo sapiens)
Sequence (P13945 whole entry): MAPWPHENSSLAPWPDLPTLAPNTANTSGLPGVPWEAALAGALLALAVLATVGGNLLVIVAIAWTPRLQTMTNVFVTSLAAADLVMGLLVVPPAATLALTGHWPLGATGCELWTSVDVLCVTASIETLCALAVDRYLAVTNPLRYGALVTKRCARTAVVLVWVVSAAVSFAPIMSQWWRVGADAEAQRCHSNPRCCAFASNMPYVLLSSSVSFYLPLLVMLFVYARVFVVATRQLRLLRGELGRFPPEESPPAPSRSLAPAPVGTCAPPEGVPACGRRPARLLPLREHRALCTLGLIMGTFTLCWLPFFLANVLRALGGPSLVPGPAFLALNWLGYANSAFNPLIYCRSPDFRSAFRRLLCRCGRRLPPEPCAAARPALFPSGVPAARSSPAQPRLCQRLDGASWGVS
TEST_DESCRIPTION: cAMP accumulation in CHO/pKREX10-36 cells highly expressing human β3-adrenergic receptor
CONDITION_SET: cAMP accumulation, CHO/pKREX10-36, 37° C. 30 minutes
PARAMETER_MEASURED: EC50

# input Quick check: EC50 on human β3-adrenergic receptor (Homo sapiens), item C[C@H](Cc1c[nH]c2c(OCC(=O)O)cccc12)NC[C@H](O)c1cccc(Cl)c1 [Compound A] ?
# output 0.27 nM
